Biological target: T1, human CRF2α receptor (human) (UniProt Q13324)
T1 sequence: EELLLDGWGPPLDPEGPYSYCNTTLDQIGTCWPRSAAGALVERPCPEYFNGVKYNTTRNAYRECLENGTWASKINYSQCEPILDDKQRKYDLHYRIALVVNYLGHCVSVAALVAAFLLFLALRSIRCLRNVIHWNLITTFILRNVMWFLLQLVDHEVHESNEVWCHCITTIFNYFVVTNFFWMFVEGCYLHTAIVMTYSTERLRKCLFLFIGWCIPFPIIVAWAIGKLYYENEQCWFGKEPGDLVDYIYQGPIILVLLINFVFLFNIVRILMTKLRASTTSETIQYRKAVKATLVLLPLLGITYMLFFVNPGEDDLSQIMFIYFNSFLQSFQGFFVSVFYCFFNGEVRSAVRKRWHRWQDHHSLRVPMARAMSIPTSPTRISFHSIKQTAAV
Experiment: cell-based or functional assay
Bridge positions count the residues as written; N and C are the ends. Ends that are not written are not given here.
MEASUREMENT_LABEL: EC50 of adenylate cyclase stimulation (cAMP)

[ask] Please give the measured EC50 of adenylate cyclase stimulation (cAMP) for this binder: QGPPISIDLSLELLRKMIEIEKQEKEKQQAANNRLLLDTI (peptide, UniProt P01144 1-40, looked up) [Sauvagine]
[reply] 0.5 nM

[ask] Input ISLDLTFHLLREVLEMARAEQLAQQAHS (peptide, UniProt P06850 159-186, looked up) [r/hCRF(6-33)]
[reply] > 1000 nM

[ask] Input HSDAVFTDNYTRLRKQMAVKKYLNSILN (peptide, UniProt P01282 125-152, looked up, species assumed, ends and bridges not checked) [VIP]
[reply] > 1000 nM

[ask] Input CYFQNCPRG-NH2 (peptide, UniProt P01185 20-28, looked up, species assumed, disulfide 1-6; ends not checked) [AVP]
[reply] > 1000 nM
